system: Puccinia triticina; assay: Wheat Brown Rust fungicidal activity (PUCCRT); type: in vivo; details: Puccinia triticina, 72 h, 3 Day Curative, rate 121.5 g/H, read-out: Disease control PUCCRT 3DC
Assay Endpoint: pest or weed control at 121.5 g/ha

Jot down pest or weed control at 121.5 g/ha (Puccinia triticina) of COc1ccnc(C(=O)N[C@H]2COC[C@H](CC(F)(F)F)[C@@H](OC3CCCC3)[C@H](C)OC2=O)c1OCOC(C)=O .
80 to 100%

Jot down pest or weed control at 121.5 g/ha (Puccinia triticina) of COc1ccnc(C(=O)N[C@H]2COC[C@H](CC(F)(F)F)[C@@H](OCC(C)C)[C@H](C)OC2=O)c1OCOC(C)=O .
80 to 100%

Jot down pest or weed control at 121.5 g/ha (Puccinia triticina) of COc1ccnc(C(=O)N[C@H]2COC[C@H](CCc3ccccc3)[C@@H](OC(=O)C3CC3)[C@H](C)OC2=O)c1OCOC(=O)C(C)C .
80 to 100%

Jot down pest or weed control at 121.5 g/ha (Puccinia triticina) of COc1ccnc(C(=O)N[C@H]2COC[C@H](Cc3ccc(Cl)cc3Cl)[C@@H](OC(=O)C(C)C)[C@H](C)OC2=O)c1OCOC(C)=O .
0 to 80%
